The measurements presented in this section are drawn from ChEMBL document CHEMBL1128552.

# Protocol summary: Dissociation constant was measured
# Format: physicochemical
Give measured pKa for each item. Keep answers brief.
Just the number, please, no unit after it.

Query string: Sample CNc1ncnc2c1ncn2Cc1ccccc1F [BW-A78U] — what was its pKa?
Result string: 3.88

Query string: State the recorded pKa for this entry: `CNc1nccn2c(Cc3ccccc3F)nnc12`
Result string: 4.02

====

# Protocol summary: Lipophilicity was measured
# Type: physicochemical
# Condition context: octanol/water
Result type: logP
A bare number is all that is needed in reply.

Query string: Using the record for `CNc1nccn2c(Cc3ccccc3F)nnc12` , report its logP.
Result string: 1.56

Query string: For CNc1ncnc2c1ncn2Cc1ccccc1F [BW-A78U] , what is its reported logP?
Result string: 1.86
